# SYSTEM_NAME: UniProt:P20916
# ASSAY_PROCEDURE: Binding affinity to wild type MAG at 400 uM by Isothermal titration calorimetry
pKd: −log10 of the molar value.
OBSERVATION_TYPE: pKd

SMILES_STRING	SYSTEM_NAME	OBSERVATION_TYPE	MEASURED_RESULT
COC(=O)[C@@H](NC(C)=O)[C@@H](C)O[C@H]1O[C@H](CO[C@]2(C(=O)O)C[C@H](O)[C@@H](NC(C)=O)[C@H]([C@H](O)[C@H](O)CNC(=O)c3ccc(Cl)cc3)O2)[C@H](O)[C@H](O[C@@H]2O[C@H](CO)[C@H](O)[C@H](O)[C@H]2O)[C@H]1NC(C)=O	UniProt:P20916	pKd	6.00

I = COC(=O)[C@@H](NC(C)=O)[C@@H](C)O[C@H]1O[C@H](CO[C@]2(C(=O)O)C[C@H](O)[C@@H](NC(C)=O)[C@H]([C@H](O)[C@H](O)CNC(=O)c3ccc(F)cc3)O2)[C@H](O)[C@H](O[C@@H]2O[C@H](CO)[C@H](O)[C@H](O)[C@H]2O)[C@H]1NC(C)=O
II = COC(=O)[C@@H](NC(C)=O)[C@@H](C)O[C@H]1O[C@H](CO)[C@H](O)[C@H](O[C@@H]2O[C@H](CO)[C@H](O)[C@H](O[C@]3(C(=O)O)C[C@H](O)[C@@H](NC(C)=O)[C@H]([C@H](O)[C@H](O)CNC(=O)c4ccccc4)O3)[C@H]2O)[C@H]1NC(C)=O
Lab log: flag the item ( I or II ) with the smaller pKd figure. When you have decided, please share the label of that item.
I

* * *

# SYSTEM_NAME: Myelin-associated glycoprotein (Homo sapiens, UniProt P20916)
# ASSAY_PROCEDURE: Binding affinity to wild type MAG at 400 uM by Isothermal titration calorimetry
OBSERVATION_TYPE: Kd (µM)

SMILES_STRING	MEASURED_RESULT
COC(=O)[C@@H](NC(C)=O)[C@@H](C)O[C@H]1O[C@H](CO)[C@H](O)[C@H](O[C@@H]2O[C@H](CO)[C@H](O)[C@H](O[C@]3(C(=O)O)C[C@H](O)[C@@H](NC(C)=O)[C@H]([C@H](O)[C@H](O)CO)O3)[C@H]2O)[C@H]1NC(C)=O	1.9

a = COC(=O)[C@@H](NC(C)=O)[C@@H](C)O[C@H]1O[C@H](CO[C@]2(C(=O)O)C[C@H](O)[C@@H](NC(C)=O)[C@H]([C@H](O)[C@H](O)CO)O2)[C@H](O)[C@H](O[C@@H]2O[C@H](CO)[C@H](O)[C@H](O)[C@H]2O)[C@H]1NC(C)=O
b = COC(=O)[C@@H](NC(C)=O)[C@@H](C)O[C@H]1O[C@H](CO)[C@H](O)[C@H](O[C@@H]2O[C@H](CO)[C@H](O)[C@H](O[C@]3(C(=O)O)C[C@H](O)[C@@H](NC(C)=O)[C@H]([C@H](O)[C@H](O)CNC(=O)c4ccc(Cl)cc4)O3)[C@H]2O)[C@H]1NC(C)=O
Between these two entries, a and b , state which has the higher Kd. When you have decided, please share the label of that item.
a
(a: 13 µM, b: 1 µM)

* * *

# SYSTEM_NAME: Myelin-associated glycoprotein (Homo sapiens, UniProt P20916)
# ASSAY_PROCEDURE: Inhibition of MAG
OBSERVATION_TYPE: IC50 (µM)

SMILES_STRING	SYSTEM_NAME	IC50, µM
CC(=O)N[C@H]1[C@@H](O[C@H](C)[C@H](N)C(=O)O)O[C@H](CO[C@]2(C(=O)O)C[C@H](O)[C@@H](NC(C)=O)[C@H]([C@H](O)[C@H](O)CO)O2)[C@H](O)[C@@H]1O[C@@H]1O[C@H](CO)[C@H](O)[C@H](O[C@]2(C(=O)O)C[C@H](O)[C@@H](NC(C)=O)[C@H]([C@H](O)[C@H](O)CO)O2)[C@H]1O	Myelin-associated glycoprotein (Homo sapiens, UniProt P20916)	0.3

1 = CC(=O)N[C@H]1[C@@H](OCc2ccccc2)O[C@H](CO)[C@H](O)[C@@H]1O[C@@H]1O[C@H](CO)[C@H](O)[C@H](O[C@]2(C(=O)O)C[C@H](O)[C@@H](NC(C)=O)[C@H]([C@H](O)[C@H](O)CO)O2)[C@H]1O
2 = CC(=O)N[C@@H]1[C@@H](O[C@@H]2O[C@H](CO)[C@H](O)[C@H](O[C@]3(C(=O)O)C[C@H](O)[C@@H](NC(C)=O)[C@H]([C@H](O)[C@H](O)CO)O3)[C@H]2O)[C@@H](O)[C@@H](CO)O[C@H]1Sc1ccc(C)cc1
3 = CC(=O)N[C@H]1[C@@H](O[C@H](C)[C@H](N)C(=O)O)O[C@H](CO)[C@H](O)[C@@H]1O[C@@H]1O[C@H](CO)[C@H](O)[C@H](O[C@]2(C(=O)O)C[C@H](O)[C@@H](NC(C)=O)[C@H]([C@H](O)[C@H](O)CO)O2)[C@H]1O
Arrange by IC50, high to low. Note for the reader: the ranking is given by listing the labels in the order requested.
2, 1, 3

* * *

# SYSTEM_NAME: UniProtKB P20916
# Sequence (P20916 whole entry): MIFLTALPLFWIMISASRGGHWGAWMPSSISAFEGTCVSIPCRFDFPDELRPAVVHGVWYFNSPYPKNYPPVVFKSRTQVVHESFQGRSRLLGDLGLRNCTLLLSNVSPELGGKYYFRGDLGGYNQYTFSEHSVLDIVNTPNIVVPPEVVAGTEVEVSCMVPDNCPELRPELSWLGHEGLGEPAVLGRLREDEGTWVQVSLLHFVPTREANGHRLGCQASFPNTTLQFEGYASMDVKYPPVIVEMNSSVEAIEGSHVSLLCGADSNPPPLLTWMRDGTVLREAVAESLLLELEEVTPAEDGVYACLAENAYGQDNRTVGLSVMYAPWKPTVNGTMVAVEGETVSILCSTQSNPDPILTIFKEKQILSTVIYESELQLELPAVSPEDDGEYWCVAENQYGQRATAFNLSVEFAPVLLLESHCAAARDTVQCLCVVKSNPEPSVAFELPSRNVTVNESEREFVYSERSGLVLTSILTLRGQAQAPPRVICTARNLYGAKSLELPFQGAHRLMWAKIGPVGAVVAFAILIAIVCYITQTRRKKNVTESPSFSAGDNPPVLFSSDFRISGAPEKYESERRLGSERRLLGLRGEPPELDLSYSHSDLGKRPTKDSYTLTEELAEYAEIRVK
# ASSAY_PROCEDURE: Inhibition of MAG -Fc chimera expressed in CHO cells using NeuAc alpha2-3Galbeta1-4GlcNAc-R coupled biotinylated polyacrylamide after 30 mins by ELISA
# Assay type: cell-based
OBSERVATION_TYPE: IC50 (µM)
Value expressed in µM; do not type the unit.

Item under review: COC(=O)[C@@H](NC(C)=O)[C@@H](C)O[C@H]1O[C@H](CO[C@]2(C(=O)O)C[C@H](O)[C@@H](NC(C)=O)[C@H]([C@H](O)[C@H](O)CO)O2)[C@H](O)[C@H](O[C@@H]2O[C@H](CO)[C@H](O)[C@H](O)[C@H]2O)[C@H]1NC(C)=O . Reported IC50?
7.9

* * *

# SYSTEM_NAME: UniProt:P20916
# ASSAY_PROCEDURE: Inhibition of MAG -Fc chimera expressed in CHO cells using NeuAc alpha2-3Galbeta1-4GlcNAc-R coupled biotinylated polyacrylamide after 30 mins by ELISA
# Format: cell-based
OBSERVATION_TYPE: IC50 (nM)

Some molecules with known IC50 results, for comparison:
SMILES_STRING	OBSERVATION_TYPE	MEASURED_RESULT
COC(=O)[C@@H](NC(C)=O)[C@@H](C)O[C@H]1O[C@H](CO)[C@H](O)[C@H](O[C@@H]2O[C@H](CO)[C@H](O)[C@H](O[C@]3(C(=O)O)C[C@H](O)[C@@H](NC(C)=O)[C@H]([C@H](O)[C@H](O)CNC(=O)c4ccc(Cl)cc4)O3)[C@H]2O)[C@H]1NC(C)=O	IC50	610
COC(=O)[C@@H](NC(C)=O)[C@@H](C)O[C@H]1O[C@H](CO[C@]2(C(=O)O)C[C@H](O)[C@@H](NC(C)=O)[C@H]([C@H](O)[C@H](O)CO)O2)[C@H](O)[C@H](O[C@@H]2O[C@H](CO)[C@H](O)[C@H](O[C@]3(C(=O)O)C[C@H](O)[C@@H](NC(C)=O)[C@H]([C@H](O)[C@H](O)CNC(=O)c4ccc(F)cc4)O3)[C@H]2O)[C@H]1NC(C)=O	IC50	300
COC(=O)[C@@H](NC(C)=O)[C@@H](C)O[C@H]1O[C@H](CO[C@]2(C(=O)O)C[C@H](O)[C@@H](NC(C)=O)[C@H]([C@H](O)[C@H](O)CNC(=O)c3ccc(F)cc3)O2)[C@H](O)[C@H](O[C@@H]2O[C@H](CO)[C@H](O)[C@H](O)[C@H]2O)[C@H]1NC(C)=O	IC50	1100
COC(=O)[C@@H](NC(C)=O)[C@@H](C)O[C@H]1O[C@H](CO)[C@H](O)[C@H](O[C@@H]2O[C@H](CO)[C@H](O)[C@H](O[C@]3(C(=O)O)C[C@H](O)[C@@H](NC(C)=O)[C@H]([C@H](O)[C@H](O)CNC(=O)c4ccccc4)O3)[C@H]2O)[C@H]1NC(C)=O	IC50	650
COC(=O)[C@@H](NC(C)=O)[C@@H](C)O[C@H]1O[C@H](CO[C@]2(C(=O)O)C[C@H](O)[C@@H](NC(C)=O)[C@H]([C@H](O)[C@H](O)CNC(=O)c3ccc(F)cc3)O2)[C@H](O)[C@H](O[C@@H]2O[C@H](CO)[C@H](O)[C@H](O[C@]3(C(=O)O)C[C@H](O)[C@@H](NC(C)=O)[C@H]([C@H](O)[C@H](O)CO)O3)[C@H]2O)[C@H]1NC(C)=O	IC50	9

a = COC(=O)[C@@H](NC(C)=O)[C@@H](C)O[C@H]1O[C@H](CO[C@]2(C(=O)O)C[C@H](O)[C@@H](NC(C)=O)[C@H]([C@H](O)[C@H](O)CNC(=O)c3ccc(Cl)cc3)O2)[C@H](O)[C@H](O[C@@H]2O[C@H](CO)[C@H](O)[C@H](O)[C@H]2O)[C@H]1NC(C)=O
b = COC(=O)[C@@H](NC(C)=O)[C@@H](C)O[C@H]1O[C@H](CO)[C@H](O)[C@H](O[C@@H]2O[C@H](CO)[C@H](O)[C@H](O[C@]3(C(=O)O)C[C@H](O)[C@@H](NC(C)=O)[C@H]([C@H](O)[C@H](O)CO)O3)[C@H]2O)[C@H]1NC(C)=O
c = COC(=O)[C@@H](NC(C)=O)[C@@H](C)O[C@H]1O[C@H](CO)[C@H](O)[C@H](O[C@@H]2O[C@H](CO)[C@H](O)[C@H](O[C@]3(C(=O)O)C[C@H](O)[C@@H](NC(C)=O)[C@H]([C@H](O)[C@H](O)CNC(=O)c4ccc(F)cc4)O3)[C@H]2O)[C@H]1NC(C)=O
Arrange by IC50, high to low. Note for the reader: the ranking is given by listing the labels in the order requested.
b, a, c
(b: 1200 nM, a: 640 nM, c: 79 nM)

Reference source: ChEMBL document CHEMBL1833949
